Target: PD-L1-his fusion protein (Homo sapiens (Human), UniProt Q9NZQ7 19-238)
Sequence (Q9NZQ7 other isoform, or with tags, fused parts or gaps limits assumed): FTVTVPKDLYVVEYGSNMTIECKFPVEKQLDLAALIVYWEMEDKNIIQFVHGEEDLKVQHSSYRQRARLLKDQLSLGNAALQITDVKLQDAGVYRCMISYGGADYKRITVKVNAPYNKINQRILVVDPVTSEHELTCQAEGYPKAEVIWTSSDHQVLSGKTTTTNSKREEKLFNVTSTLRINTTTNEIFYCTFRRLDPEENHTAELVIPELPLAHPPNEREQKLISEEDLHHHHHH
Test: ELISA, PD-L1-his coated, culture supernatant of the clone
Measure Name: binding result

Consider the reported binding result for these binders:
Binder: QP1161 nanobody (VHH, as m59) VHH: QVQLVESGGGSVQAGGSLTLSCAVSGNTYSTNYMAWFRQAPGKEREGVAAIRVGGRNTDYADSVKGRFTISQDNAKNTVYLQMNSLKPEDTAMYYCAADTRAAFWYIGPLNSDQYNIWGQGTQVTVSS
binding result: binds

Binder: QP1139 nanobody (VHH, as m59) VHH: QVQLVESGGGSVQAGGSLTLSCAVSGNTYGTNAMGWFRQAPGKEREGVAAILGGGRNTYYADSVKGRFTISQDNAKNTVYLQMNSLKPEDTAMYYCAADTRAAFWNIGPLNSDQYNIWGQGTQVTVSS
binding result: binds

Binder: QP1149 nanobody (VHH, as m59) VHH: QVQLVESGGGSVQAGGSLTLSCAVSGNTYSTNYMGWFRQAPGKEREGVAAILAGGRNTYYADSVKGRFTISQDNAKDTVYLQMNSLKPEDTAMYYCAADTRAAFWNIGPLNSDQYNIWGQGTQVTVSS
binding result: binds

Binder: QP1155 nanobody (VHH, as m59) VHH: QVQLVESGGGSVQAGGSLTLSCEVSGSTYSTNYMGWFRQAPGKEREGVAAILAGGRNTDYADSVKGRFTISQDNAKNTVYLQMNSLKPEDTAMYYCAADTRAAFWYIGPLNSDQYNIWGQGTQVTVSS
binding result: binds

Binder: QP1129 nanobody (VHH, as m59) VHH: QVQLVESGGGSVQSGGSLRLSCAASGYSSSRYSVGWFRQAPGKEREGVAGQTPRGTTTYADSVKDRFTISRDNAKNTVYLQMNSLKPEDTAMYYCAAGQALLWASLRQTSYQFWGQGTQVTVSS
binding result: binds

Short answer for QP1158 nanobody (VHH, as m59) VHH: QVQLVESGGGSVQAGGSLTLSCAVSGNTYSTKYMGWFRQAPGKEREGVAAILAGGRNTYYADSVKGRFTISQDNAKNTVYLRMNSLKPEDTAMYYCAADTRAALWYIGPLNSDQYNTWGQGTQVTVSS : binding result was binds

Short answer for QP1159 nanobody (VHH, as m59) VHH: QVQLVESGGGSVQAGGSLTLSCAVSGNTYSTKYMGWFRQAPGKEREGVAAILAGGRNTSYADSVKGRFTISQDNAKNTVYLQMNSLKPEDTAMYYCAADTRAAFWYIGPLNSDQYNIWGQGTQVTVSS : binding result was binds
